Hello, the source for this data is PubChem BioAssay AID624126, in case you need it.

Study system: Muscarinic acetylcholine receptor M4 (Homo sapiens)
Protocol details: human M4 muscarinic receptor positive allosteric modulators, primary screen, CHO-K1 cells, Fluo-8 calcium fluorescence (AID 624126)
Experimental setup: CHO-K1 hM4/Gqi5, Fluo-8 calcium fluorescence, ACh EC20; at 3 µM; stronger effect = higher value; 0% = ACh EC20, 100% = maximal ACh
About 1,400 (0.39%) of roughly 360,000 compounds were called active. Many of the other results were omitted from the sample, so actives are more common in it than they were.
Assay endpoint: activation (%)
Numbers only, in %.

O=C(NCc1ccncc1)NC12CC3CC(CC(C3)C1)C2	21.2
CN(Cc1ccccc1)C(=O)c1ccc(NC2=NC3CS(=O)(=O)CC3S2)cc1 (stereo unspecified)	-4.53
CCN(CC)c1ccc(C(=O)OCC(=O)c2ccco2)cc1	-1.72
Cc1cc(OC(C)C(=O)Nc2ccc(S(=O)(=O)Nc3onc(C)c3C)cc2)cc(C)c1Cl (stereo unspecified)	-0.5
S=C(NCc1ccc(Cl)cc1)NC12CC3CC(CC(C3)C1)C2	-13.6

Any idea what activation was measured for `O=C(NCc1cccnc1)C12CC3CC(CC(C3)C1)C2` ?
-4.11

----------
Consider the following molecules; for each one, report its activation.
Study system: Muscarinic acetylcholine receptor M4 (Homo sapiens) (UniProt P08173)
Sequence (P08173 whole entry, looked up): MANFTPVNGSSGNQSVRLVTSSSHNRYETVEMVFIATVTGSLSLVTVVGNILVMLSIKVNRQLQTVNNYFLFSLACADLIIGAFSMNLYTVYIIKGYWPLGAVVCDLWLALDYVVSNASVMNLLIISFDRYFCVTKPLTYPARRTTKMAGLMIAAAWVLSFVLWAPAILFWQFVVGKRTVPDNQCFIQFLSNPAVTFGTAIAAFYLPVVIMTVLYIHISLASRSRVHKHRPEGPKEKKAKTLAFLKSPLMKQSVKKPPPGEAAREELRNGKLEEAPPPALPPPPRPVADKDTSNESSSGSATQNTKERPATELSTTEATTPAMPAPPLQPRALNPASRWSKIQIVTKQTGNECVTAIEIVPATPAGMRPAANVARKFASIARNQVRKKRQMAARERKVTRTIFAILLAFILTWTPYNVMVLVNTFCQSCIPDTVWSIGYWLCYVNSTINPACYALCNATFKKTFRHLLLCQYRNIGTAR
Protocol details: human M4 muscarinic receptor positive allosteric modulators, primary screen, CHO-K1 cells, Fluo-8 calcium fluorescence (AID 624126)
Experimental setup: CHO-K1 hM4/Gqi5, Fluo-8 calcium fluorescence, ACh EC20; at 3 µM; stronger effect = higher value; 0% = ACh EC20, 100% = maximal ACh
In all, about 360,000 compounds went through this assay and about 1,400 (0.39%) were called active. Only a selection was taken, and actives are over-represented in it overall.

Example molecules with recorded activation:
Cc1ccccc1NC(=O)CCOc1ccccc1	15.2% (active)
O=C1C=C(c2ccc(Cl)cc2)C(=O)N1Nc1ccccc1	-7.82% (inactive)
CN=C(NC#N)NCCSCc1nc[nH]c1C	-5.15% (inactive)

Give me activation for each of these molecules, listed below.
1. O=C(C(NS(=O)(=O)c1cccc2nsnc12)c1ccccc1)N1CCN(c2ccccn2)CC1 (centres undefined)
2. COc1cc(CCC(=O)OCC(=O)Nc2cccc(S(N)(=O)=O)c2)cc(OC)c1OC
3. COC(=O)c1scc(S(=O)(=O)C(C)(C)C)c1-n1cccc1
4. O=C(Nc1c(Cl)cccc1Cl)C1CCC1
5. Cc1ccc(C2=CSC3=NS(=O)(=O)CCN23)cc1C
6. CC(=O)c1c(C)[nH]c(C(=O)N2CCN(S(=O)(=O)c3ccc(F)c(F)c3)CC2)c1C

["-11.9% (inactive)", "1.58% (inactive)", "-11.5% (inactive)", "11.8% (inactive)", "5.85% (inactive)", "1.38% (inactive)"]

Could you tell me activation for each of these molecules? They are listed below.
1. CC(OC(=O)/C=C/c1ccccc1)C(=O)Nc1ccc(C(N)=O)cc1 (centres undefined)
2. CCN1CN(Cc2ccccc2)CNC1=S
3. Cc1ccn2cc(-c3nonc3C)cc2c1

1: 5.82% (inactive); 2: 10.7% (inactive); 3: 3.14% (inactive)

List activation for every entry below, keeping the order given.
1. O=C(COC(=O)c1ncc(Cl)c(Cl)c1Cl)NCc1ccccc1
2. Cc1ccc(SCC2=NNC(=O)C2)cc1
3. O=C(CN1C(=O)S/C(=C\c2ccccc2F)C1=O)NCCCn1ccnc1

1: 16.7% (inactive); 2: -0.52% (inactive); 3: 17.2% (active)

For the 4 molecules below, give their activation values.
1. CCCc1cc(=O)[nH]c(SCC(=O)c2c(N)n(CC(C)C)c(=O)n(C)c2=O)n1
2. NC(=S)Nc1c(Cl)cccc1Cl
3. Cc1[nH]c2c(C(=O)N3CCCC(CCC(=O)NCc4ccccc4F)C3)cccc2c1C (centres undefined)
4. COc1ccc(N2CCN(C(c3cc4ccc(C)cc4[nH]c3=O)c3nnnn3C3CCCC3)CC2)cc1 (centres undefined)

1. 25.4% (active)
2. 43.9% (active)
3. -3.21% (inactive)
4. -3.66% (inactive)

----------
Study system: Muscarinic acetylcholine receptor M4 (Homo sapiens)
Protocol details: human M4 muscarinic receptor positive allosteric modulators, primary screen, CHO-K1 cells, Fluo-8 calcium fluorescence (AID 624126)
Experimental setup: CHO-K1 hM4/Gqi5, Fluo-8 calcium fluorescence, ACh EC20; at 3 µM; stronger effect = higher value; 0% = ACh EC20, 100% = maximal ACh
About 1,400 (0.39%) of roughly 360,000 compounds were called active. The entries come from a sample that favours actives as a whole.
Kindly state activation for each of the entries shown.
Answers are plain numbers, in %.

COc1ccc(CCNC(=O)CN2C(=O)CCSc3ccccc32)c(OC)c1	0.14
Cn1c2ccccc2c(=O)c2c(=O)n(Cc3ccco3)c(COc3ccccc3)nc21	21.8

Kindly give each listed record's activation.
1. Cc1ccc2nc(-c3ccncc3)cc(C(=O)Nc3ccncc3)c2c1
2. Cn1c(SCC(=O)c2ccc(F)cc2)nnc1-c1ccccn1
3. Cc1ccc(S(=O)(=O)N2CCN(C(=O)CSc3cc(C)ccc3C)CC2)c(C)c1
4. Cn1c(SCC(=O)c2ccccc2)ncc(C(=O)Nc2ccc(F)cc2)c1=O

1. 20.7
2. -3.85
3. 18.8
4. 21.6

Please state, for each entry, its recorded activation.
1. COc1ccc(-c2oc3ncn(Cc4ccco4)c(=N)c3c2-c2ccc(OC)cc2)cc1
2. CCCc1cc(=O)[nH]c(SCC(=O)N2CCN(S(=O)(=O)c3ccc(C)cc3C)CC2)n1
3. CC(C)c1cccc(C(C)C)c1Nc1cn[nH]c1
4. O=C(NCc1ccc2c(c1)OCO2)c1c(-c2ccsc2)sc2ccccc12

1. -6.61
2. -1.77
3. 28.5
4. -3.52

----------
Would you kindly list activation for each of these molecules?
Study system: Muscarinic acetylcholine receptor M4 (Homo sapiens) (UniProt P08173)
Protocol details: human M4 muscarinic receptor positive allosteric modulators, primary screen, CHO-K1 cells, Fluo-8 calcium fluorescence (AID 624126)
Experimental setup: CHO-K1 hM4/Gqi5, Fluo-8 calcium fluorescence, ACh EC20; at 3 µM; stronger effect = higher value; 0% = ACh EC20, 100% = maximal ACh
The campaign covered roughly 360,000 compounds. About 1,400 (0.39%) were called active. The sample as a whole holds a higher share of actives than the screen did.
Numbers only, in %.

Below: 3 molecules and their reported activation.
CCOC(=O)c1c(NC(=O)C2CC=CCC2C(=O)O)sc(C)c1CC (configuration not stated)	0.65
N/C(=N\OC(=O)CCc1ccccc1)c1cccnc1	24.5
CC1CN(CCOc2ccccc2[N+](=O)[O-])CC(C)O1 (configuration not stated)	1.64

Report activation for every entry below.
1. COCc1c(C(=O)OCc2c(C)noc2C)oc2ccccc12
2. CC(C)Oc1ccc(C(=O)Nc2cc(=O)n(C)c(=O)n2C)cc1
3. CC(Sc1nnc2c(n1)C1CCC2(C)C1(C)C)C(=O)Nc1ccccc1 (configuration not stated)
4. CCCCN1C(=O)c2ccc(C(=O)Nc3ccc(S(=O)(=O)N(C)C)cc3)cc2C1=O
5. CC1CN(CCCOc2ccccc2-c2ccccc2)CC(C)O1 (configuration not stated)
6. NCC(=O)c1cccc2ccc[n+]([O-])c12
7. COc1cccc(NC(=O)C2CCCN(c3ncnc4c3nc3n4CCCCC3)C2)c1 (configuration not stated)
8. O=C(Nc1ccc(F)cc1)C1CCCN(S(=O)(=O)c2ccc(-n3cnnn3)cc2)C1 (configuration not stated)

1: -3.78; 2: 5.54; 3: -0.53; 4: -10.2; 5: -4.17; 6: 17.3; 7: -6.71; 8: 8

----------
Please go through the items and note down their activation.
Study system: Muscarinic acetylcholine receptor M4 (Homo sapiens)
Protocol details: human M4 muscarinic receptor positive allosteric modulators, primary screen, CHO-K1 cells, Fluo-8 calcium fluorescence (AID 624126)
Experimental setup: CHO-K1 hM4/Gqi5, Fluo-8 calcium fluorescence, ACh EC20; at 3 µM; stronger effect = higher value; 0% = ACh EC20, 100% = maximal ACh
In all, about 360,000 compounds went through this assay and about 1,400 (0.39%) were called active. Many of the other results were omitted from the sample, so actives are more common in it than they were.
Numbers only, in %.

CCCCCCn1cc(C(=O)O)c(=O)c2cc(F)c(N3CCCCC3)cc21	-1.05
Cc1cccc(N(C(=O)c2ccc(CN3CCOCC3)o2)C(C(=O)NC2CCCCC2)c2ccc(F)cc2)c1 (centres undefined)	15.7
COc1ccc(CCNC(=O)COC(=O)c2cc(=O)c3ccccc3o2)cc1	26.3
CN(c1ccc2nc3ccccc3c(=O)n2n1)C1CCCCC1	11.4
CCOC(=O)c1cc(C(C)C)sc1NC(=O)COC(=O)c1nccnc1N	17
Cc1cccc(-n2c(SCC(N)=O)nc3c(c2=O)C2(CCCCC2)Cc2ccccc2-3)c1	-5.47
CCNC(=O)CCc1nc(-c2ccc(C(C)(C)C)cc2)no1	1.74
Cc1cc(Br)cn2c(Cc3ccsc3)c(-c3ccc(C#N)cc3)nc12	-5.22
COc1ccc(CCNC(=O)CCn2c(=O)oc3ccccc32)cc1OC	5.54
CCOc1ccccc1C1NC(=O)NC(C)=C1C(=O)OCc1ccco1 (centres undefined)	-5.48

Hi team, please reply with activation for each item in this list.
1. O=C(O)CCS(=O)(=O)c1ccc(-c2ccccc2)cc1
2. CCc1cc(C(=O)Nc2nnc(C3CC3)s2)sc1C
3. COc1cc(CC(=O)N2CCC(n3nccc3NC(=O)C3CC3)CC2)cc(OC)c1OC
4. Cc1sc2ncnc(N3CCC(C(=O)Nc4nc5ccc(Cl)cc5s4)CC3)c2c1C

20.7
6.5
0.58
7.24
